TEST DETAILS: Median lethal dose after single administration
Parameters: species or system mice
CONDITION INFO: male, CD1, mouse, in vivo, ip
PARAMETER: LD50 at 2 weeks (mg/kg)
Answers are plain numbers, in mg/kg.

# query: LD50 at 2 weeks of entry Cc1ccc2c(c1)c1c(n2CCc2ccccc2)CCN(C)C1
105

###

TEST DETAILS: Metabolism in rat liver S9 fraction
Type: in vitro ADME
CONDITION INFO: rat, liver S9 fraction, T1/2, +NADPH+UDPGA, 2μM
PARAMETER: half-life at 2 µM (min)
Numbers only, in min.

Consider the compound shown here: Cc1ccc2c(c1)c1c(n2CCc2ccccc2)CCN(C)C1 [AVN-101] What is its recorded half-life at 2 µM?
2.34

###

TEST DETAILS: Pharmacokinetics in Wistar rats, IV/IP/PO
Assay type: in vivo
CONDITION INFO: Wistar, rat, plasma, iv, 5 mg/kg
PARAMETER: k el (s⁻¹)
One number for each entry, in s⁻¹.

So what's the measured k el for this one? Cc1ccc2c(c1)c1c(n2CCc2ccccc2)CCN(C)C1
0.000202

###

EXPERIMENTAL TARGET: P-glycoprotein (Homo sapiens, UniProt P08183)
Sequence (P08183 whole entry): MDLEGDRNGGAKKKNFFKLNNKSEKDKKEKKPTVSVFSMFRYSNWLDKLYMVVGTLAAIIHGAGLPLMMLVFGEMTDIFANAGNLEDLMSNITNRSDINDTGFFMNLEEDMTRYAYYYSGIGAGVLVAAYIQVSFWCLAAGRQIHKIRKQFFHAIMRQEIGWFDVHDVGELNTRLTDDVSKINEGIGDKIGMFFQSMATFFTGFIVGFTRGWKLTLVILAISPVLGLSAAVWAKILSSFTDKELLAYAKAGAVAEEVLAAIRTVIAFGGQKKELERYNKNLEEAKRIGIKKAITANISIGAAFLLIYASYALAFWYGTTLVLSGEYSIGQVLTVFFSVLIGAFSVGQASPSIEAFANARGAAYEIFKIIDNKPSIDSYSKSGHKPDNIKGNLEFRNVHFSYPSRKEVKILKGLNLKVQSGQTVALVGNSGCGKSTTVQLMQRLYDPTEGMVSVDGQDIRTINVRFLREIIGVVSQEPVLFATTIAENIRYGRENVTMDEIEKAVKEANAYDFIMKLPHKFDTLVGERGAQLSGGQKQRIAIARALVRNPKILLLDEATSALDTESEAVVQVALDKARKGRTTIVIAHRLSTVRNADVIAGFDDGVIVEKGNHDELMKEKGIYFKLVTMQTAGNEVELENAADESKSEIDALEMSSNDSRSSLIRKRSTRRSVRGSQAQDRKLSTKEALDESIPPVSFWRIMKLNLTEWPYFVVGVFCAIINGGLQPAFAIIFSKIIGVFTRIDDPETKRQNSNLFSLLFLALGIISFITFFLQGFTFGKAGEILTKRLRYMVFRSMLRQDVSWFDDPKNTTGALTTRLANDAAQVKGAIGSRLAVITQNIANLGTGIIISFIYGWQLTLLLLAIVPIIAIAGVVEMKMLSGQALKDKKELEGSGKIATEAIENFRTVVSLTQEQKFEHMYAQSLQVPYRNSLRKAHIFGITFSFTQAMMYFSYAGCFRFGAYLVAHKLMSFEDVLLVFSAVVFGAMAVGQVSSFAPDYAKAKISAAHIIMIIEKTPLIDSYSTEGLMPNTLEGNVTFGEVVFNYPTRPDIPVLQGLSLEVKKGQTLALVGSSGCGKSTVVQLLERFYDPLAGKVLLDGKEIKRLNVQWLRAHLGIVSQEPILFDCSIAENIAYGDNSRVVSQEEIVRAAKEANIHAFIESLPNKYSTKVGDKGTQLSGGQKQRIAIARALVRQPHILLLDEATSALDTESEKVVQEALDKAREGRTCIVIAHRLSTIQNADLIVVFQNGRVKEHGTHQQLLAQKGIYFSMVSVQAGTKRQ
TEST DETAILS: Pgp-Glo ATPase assay
PARAMETER: EC50

// lookup EC50 for Cc1ccc2c(c1)c1c(n2CCc2ccccc2)CCN(C)C1
~50 µM

###

TEST DETAILS: Pharmacokinetics in Wistar rats, IV/IP/PO
Type: in vivo
CONDITION INFO: Wistar, rat, plasma, ip, 5 mg/kg
PARAMETER: Cmax (ng/mL)
One number for each entry, in ng/mL.

Entry Cc1ccc2c(c1)c1c(n2CCc2ccccc2)CCN(C)C1 has what Cmax?
278

###

TEST DETAILS: Pharmacokinetics in Rhesus monkeys
Type: in vivo
CONDITION INFO: rhesus monkey, in vivo, iv, 2 mg/kg, Kel, monkey 34887, IV 2 mg/kg
PARAMETER: k el (s⁻¹)
Numbers only, in s⁻¹.

Suppose we examine the compound Cc1ccc2c(c1)c1c(n2CCc2ccccc2)CCN(C)C1 ; what k el value has been reported?
0.000347

###

TEST DETAILS: Pharmacokinetics in mice, IP
Assay type: in vivo
CONDITION INFO: mouse, blood, 5 mg/kg
PARAMETER: Cmax (ng/mL)
Numbers only, in ng/mL.

Item under review: Cc1ccc2c(c1)c1c(n2CCc2ccccc2)CCN(C)C1 . Reported Cmax?
198

###

TEST DETAILS: Phase I pharmacokinetics, single PO dose
Type: in vivo, human
CONDITION INFO: male, human, blood, po
PARAMETER: half-life

State the recorded half-life for this entry: Cc1ccc2c(c1)c1c(n2CCc2ccccc2)CCN(C)C1
8 to 14 h

###

TEST DETAILS: Pharmacokinetics in dogs
Format: in vivo, dogs (Beagle)
CONDITION INFO: Beagle, dog, blood, iv, 2 mg/kg
PARAMETER: half-life (min)
One number for each entry, in min.

Item Cc1ccc2c(c1)c1c(n2CCc2ccccc2)CCN(C)C1 has what recorded half-life?
29.8

###

TEST DETAILS: Brain/plasma/CSF distribution in Sprague Dawley rats
Type: in vivo
CONDITION INFO: Sprague Dawley, rat, plasma, iv, 2 mg/kg
PARAMETER: AUC(0-inf) (ng·h/mL)
One number for each entry, in ng·h/mL.

Consider the molecule Cc1ccc2c(c1)c1c(n2CCc2ccccc2)CCN(C)C1 [AVN-101] and give its measured AUC(0-inf).
522
